Ref: PubChem BioAssay (NCI)

- Tested on: 786-0 renal
- PROCEDURE_DETAILS: NCI tumour cell line growth inhibition, 48 h
MEASURE: TGI

Query: Please give the documented TGI of CCCCCCNC(=O)Oc1ccc(/C(=C(/C)Cc2ccc(OC)cc2)c2ccc(OCCCN(C)C)cc2)cc1
Reply: 28.4 µM

Query: Give recorded TGI. Cc1cc(-c2ccccc2)nc(Nc2nc3ccccc3o2)n1
Reply: > 100 µM

Query: Given the molecule COc1cc(NS(C)(=O)=O)ccc1Nc1c2ccccc2nc2ccccc12 , write its reported TGI.
Reply: 1.77 µM [middle of 8 runs]

Query: Entry COC(=O)CCC1CCc2c(OC)ccc(OC)c2C1=O (stereo unspecified) needs its TGI filled in; supply it.
Reply: > 100 µM

Query: Consider the molecule Cc1noc2c1C(=O)CCC2 . State its measured TGI.
Reply: > 100 µM

Query: Return TGI (reported value) for this molecule: Cn1c(=O)c(NC(=O)C(Cl)(Cl)Cl)nc2ccccc21
Reply: > 100 µM
